target or system: TEAD2 (Homo sapiens, UniProt Q15562)
Sequence (Q15562 whole entry, species assumed): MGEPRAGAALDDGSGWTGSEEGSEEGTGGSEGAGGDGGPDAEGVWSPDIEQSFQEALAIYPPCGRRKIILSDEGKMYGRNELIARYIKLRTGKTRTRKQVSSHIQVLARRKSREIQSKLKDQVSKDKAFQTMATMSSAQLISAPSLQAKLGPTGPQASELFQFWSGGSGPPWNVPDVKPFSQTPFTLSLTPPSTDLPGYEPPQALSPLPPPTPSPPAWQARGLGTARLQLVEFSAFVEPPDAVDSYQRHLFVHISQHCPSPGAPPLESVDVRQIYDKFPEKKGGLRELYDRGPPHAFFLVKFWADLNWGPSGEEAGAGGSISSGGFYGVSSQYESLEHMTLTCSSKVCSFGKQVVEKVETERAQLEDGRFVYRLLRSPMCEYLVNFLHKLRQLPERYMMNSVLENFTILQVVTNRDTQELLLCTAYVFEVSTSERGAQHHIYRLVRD
experimental details: Thermal shift assay TEAD2
Assay type: binding
quantity measured: TEAD2 ΔTm (°C)
Numbers only; they are read as °C.

compound="Cn1cc2cc(Oc3ccc(C(F)(F)F)cn3)cc([C@@H]3C[C@H]3C(=O)N3CC(O)C3)c2n1 (single isomer, unassigned) [Example 88a]" quantity_measured="TEAD2 ΔTm" unit_abbrev=°C quantitative_result=1.5
compound="Cn1cc2cc(Oc3cc(F)ccc3C(F)(F)F)cc([C@@H]3C[C@H]3C(=O)N3CC(O)C3)c2n1 (single isomer, unassigned)" quantity_measured="TEAD2 ΔTm" unit_abbrev=°C quantitative_result=8.5

Now take the following compound into account.
Query block: What value of TEAD2 ΔTm on TEAD2 (Homo sapiens, UniProt Q15562) does Cn1cc2cc(Oc3cc(F)c(F)c(F)c3)cc([C@@H]3C[C@H]3C(=O)N3C[C@@H]4C[C@H]3C[C@@H]4O)c2n1 (single isomer, unassigned) have?
Result block: 6.8
